# target: recombinant human SOS1 polypeptide (amino acids 560-1049) (Homo sapiens, UniProt Q07889)
# Construct: corresponding to amino acids 560-1049, expressed in E. Coli; made in house; host or cells: E. coli
# Sequence (Q07889 560-1049): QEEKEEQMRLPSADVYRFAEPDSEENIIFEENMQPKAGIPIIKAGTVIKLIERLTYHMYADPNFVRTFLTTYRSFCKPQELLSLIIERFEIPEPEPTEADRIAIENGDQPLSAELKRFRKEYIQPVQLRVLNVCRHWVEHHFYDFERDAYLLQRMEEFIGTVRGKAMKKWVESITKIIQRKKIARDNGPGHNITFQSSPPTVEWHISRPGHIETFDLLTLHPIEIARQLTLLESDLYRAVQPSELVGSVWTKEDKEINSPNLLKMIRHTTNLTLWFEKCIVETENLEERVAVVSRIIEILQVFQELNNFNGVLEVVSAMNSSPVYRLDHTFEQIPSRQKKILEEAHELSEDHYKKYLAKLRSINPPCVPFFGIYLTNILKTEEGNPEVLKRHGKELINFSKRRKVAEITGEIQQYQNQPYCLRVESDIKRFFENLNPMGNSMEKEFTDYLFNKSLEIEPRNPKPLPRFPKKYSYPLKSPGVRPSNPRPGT
# experimental.details: HTRF displacement assay: inhibition of labeled tracer binding to SOS1
# condition.label: Table A, Morrison equation for competitive binding
assay.endpoint: Ki (nM)

# compound, numeric.readout
measured = [
    ("Cc1c(C#N)cccc1[C@@H](C)Nc1nnc(C)c2cnc(N(C)[C@H]3CCN(C)C3)cc12", 0.683),
    ("Cc1c(C#N)cccc1[C@@H](C)Nc1nnc(C)c2cnc(N3CCN(C(=O)[C@H]4CCCCN4C)CC3)cc12", 0.67),
    ("Cc1nnc(N[C@H](C)c2cccc3c2OCC3(F)F)c2cc(N3CCN(C)CC3)ncc12", 0.423),
    ("Cc1nnc(N[C@H](C)c2cccc(C(F)(F)F)c2F)c2cc(N(C)[C@@H]3CCN(C(C)C)C3)ncc12", 0.367),
    ("Cc1c(C#N)cccc1[C@@H](C)Nc1nnc(C)c2cnc(N3C[C@@H]4C[C@H]3CN4C)cc12", 2.25),
    ("Cc1c(C#N)cccc1[C@@H](C)Nc1nnc(C)c2cnc(N3C[C@@H]4[C@H]3CCN4C)cc12 (single isomer, unassigned) [Example 6-8]", 0.808),
    ("Cc1c(C#N)cccc1[C@@H](C)Nc1nnc(C)c2cnc(NC3CCN(C)CC3)cc12", 4.49),
    ("COCCN(C)c1cc2c(N[C@H](C)c3cccc(C#N)c3C)nnc(C)c2cc1F", 9.16),
    ("Cc1nnc(N[C@H](C)c2cccc(C(F)(F)F)c2F)c2cc(N3CCOCC3)c(F)cc12", 12.3),
    ("Cc1nnc(N[C@H](C)c2cccc(C(F)(F)F)c2F)c2cc(N3CC4(CNC4)C3)ncc12", 0.524),
    ("Cc1nnc(N[C@H](C)c2cc(N)cc(C(F)(F)F)c2F)c2cc(N3CC4CC(C3)O4)ccc12", 0.31),
    ("Cc1c(C#N)cccc1[C@@H](C)Nc1nnc(C)c2cc(F)c(N3CC4(COC4)C3)cc12", 5.85),
    ("Cc1c(C#N)cccc1[C@@H](C)Nc1nnc(C)c2cnc(C3=CCN(C)CC3)cc12", 11.5),
    ("Cc1nnc(N[C@H](C)c2cccc3c2OCC3(F)F)c2cc(N3CCOCC3)ncc12", 2.31),
    ("Cc1c(C#N)cccc1[C@@H](C)Nc1nnc(C)c2cnc(N3CC4(CC(N(C)C)C4)C3)cc12", 0.664),
    ("Cc1c([C@@H](C)Nc2nnc(C)c3cc(F)c(N4CCOCC4)cc23)cc(N)nc1C(F)(F)F", 22),
    ("Cc1nnc(N[C@H](C)c2cccc(C(F)(F)F)c2F)c2cc(N3CC4(CN(C)C4)C3)ncc12", 0.21),
    ("Cc1c(C#N)cccc1[C@@H](C)Nc1nnc(C)c2cnc(N3CC[C@@H]4[C@H]3CN4C)cc12 (single isomer, unassigned)", 0.872),
    ("Cc1c(C#N)cccc1[C@@H](C)Nc1nnc(C)c2cnc(N3CC[C@@H](O)C3)cc12", 1.33),
    ("CCN1CCC(Nc2cc3c(N[C@H](C)c4cccc(C#N)c4C)nnc(C)c3cn2)CC1", 7.37),
    ("Cc1nnc(N[C@H](C)c2cccc(C(F)(F)F)c2F)c2cc(N3CCOCC3)c(C#N)cc12", 7.06),
    ("Cc1nnc(N[C@H](C)c2cccc(C(F)(F)F)c2F)c2cc(N3CC4(COC4)C3)c(F)cc12", 2.4),
    ("Cc1nnc(N[C@H](C)c2cccc(C(F)(F)F)c2F)c2cc(N(C)[C@H]3CCCN(C)C3)ncc12", 0.662),
    ("Cc1c(C#N)cccc1[C@@H](C)Nc1nnc(C)c2cnc(N3CCN(C(=O)[C@@H]4CCN(C)C4)CC3)cc12", 0.743),
    ("Cc1nnc(N[C@H](C)c2cccc(C(F)(F)F)c2F)c2cc(N(C)[C@H]3CCOC3)ncc12", 1.74),
    ("Cc1c(C#N)cccc1[C@@H](C)Nc1nnc(C)c2cnc(N3CCN(C(C)C)CC3)cc12", 0.927),
    ("Cc1c(C#N)cccc1[C@@H](C)Nc1nnc(C)c2cnc(N3CC[C@H](N)C3)cc12", 1.66),
    ("Cc1c(C#N)cccc1[C@@H](C)Nc1nnc(C)c2cc(F)c(N3CCC34CN(C)C4)cc12", 0.892),
    ("Cc1nnc(N[C@H](C)c2cccc(C(F)(F)F)c2F)c2cc(N3CCCC34CN(C)C4)ncc12", 0.249),
    ("Cc1c(C#N)cccc1[C@@H](C)Nc1nnc(C)c2cnc(N3CCN(C(=O)[C@@H]4CCCN4C)CC3)cc12", 0.845),
]
